In this section we review reported IC50 values for a set of compounds.
Target: Tyrosine-protein kinase transforming protein Src (Rous sarcoma virus)
Assay: Inhibition of in vitro protein-tyrosine kinase activity of p60v-src enzyme in presence of 5 uM ATP.
VALUE_KIND: IC50

INSERT INTO assay_data (compound, value_kind, reported_result) VALUES
  ('Nc1ccc(-c2cc(=O)c3cc(N)c(O)c(N)c3o2)cc1', 'IC50', '> 50 µM'),
  ('Nc1ccc(-c2cc(=O)c3c(O)ccc(N)c3o2)cc1', 'IC50', '> 50 µM'),
  ('Nc1ccc(-c2cc(=O)c3cc(N)cc(N)c3o2)cc1', 'IC50', '> 50 µM'),
  ('Nc1cccc(-c2cc(=O)c3c(N)c(O)c(N)cc3o2)c1', 'IC50', '38.4 µM'),
  ('COc1cc(N)c2oc(-c3ccc(N)cc3)cc(=O)c2c1', 'IC50', '> 50 µM'),
  ('Nc1ccc(-c2cc(O)c3c(=O)c(N)ccc-3o2)cc1', 'IC50', '> 50 µM'),
  ('Nc1ccc(-c2cc(=O)c3c(N)c(O)c(N)cc3o2)cc1', 'IC50', '> 50 µM'),
  ('Nc1ccc(-c2cc(=O)c3ccc(O)c(N)c3o2)cc1', 'IC50', '> 50 µM'),
  ('Nc1cccc(-c2cc(=O)c3cc(N)ccc3o2)c1 [6-Amino-2-(3-amino-phenyl)-chromen-4-one]', 'IC50', '> 50 µM'),
  ('Nc1ccc(-c2cc(=O)c3cc(N)c(O)cc3o2)cc1', 'IC50', '> 50 µM'),
  ('Nc1ccc(-c2cc(=O)c3cccc(N)c3o2)cc1 [8-Amino-2-(4-amino-phenyl)-chromen-4-one]', 'IC50', '> 50 µM'),
  ('Nc1cccc(-c2cc(=O)c3cc(N)c(O)cc3o2)c1', 'IC50', '> 50 µM'),
  ('Nc1ccc(-c2cc(=O)c3cc(N)ccc3o2)cc1 [6-Amino-2-(4-amino-phenyl)-chromen-4-one]', 'IC50', '28.8 µM'),
  ('Nc1ccc(-c2cc(=O)c3cc(O)cc(N)c3o2)cc1', 'IC50', '> 50 µM');
